tested on: 565726-208-R1-J5-PDC complex spheroids, growth inhibition; experiment: Anticancer human tumor 565726-208-R1-J5-PDC patient-derived pancreatic adenocarcinoma cell line growth inhibition [RAS]; settings: second compound 1 µM; first compound 0.316 µM; stronger effect = lower value;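 also: spheroids exposed to compounds for seven days before readout; 100% = DMSO vehicle control viability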
experimental-readout: viability, T/C (%)
Write down the numeric answer in % and omit the unit.

[[record]]
compound = "C[C@@H](NC(=O)c1ncnc(N)c1Cl)c1ncc(C(=O)Nc2cc(C(F)(F)F)c(Cl)cn2)s1 + C=CC(=O)N1CCN(c2nc(OCC3CCCN3C)nc3c(F)c(-c4nc(N)cc(C)c4C(F)(F)F)c(Cl)cc23)C(C)C1"
experimental_readout = "viability, T/C"
units_of_measure = "%"
experimental_value = 108

[[record]]
compound = "C=CC(=O)N1CCN(c2nc(OCC3CCCN3C)nc3c(F)c(-c4nc(N)cc(C)c4C(F)(F)F)c(Cl)cc23)C(C)C1 (centres undefined) + C#Cc1c(F)ccc2cc(O)cc(-c3ncc4c(N5CC6CCC(C5)N6)nc(OCC56CCCN5CC(F)C6)nc4c3F)c12"
experimental_readout = "viability, T/C"
units_of_measure = "%"
experimental_value = 82.8

[[record]]
compound = "CC(=O)OC12COC1CC(O)C1(C)C(=O)C(O)C3=C(C)C(OC(=O)C(O)C(NC(=O)OC(C)(C)C)c4ccccc4)CC(O)(C(OC(=O)c4ccccc4)C21)C3(C)C (centres undefined) + C=CC(=O)N1CCN(c2nc(OCC3CCCN3C)nc3c(F)c(-c4nc(N)cc(C)c4C(F)(F)F)c(Cl)cc23)C(C)C1"
experimental_readout = "viability, T/C"
units_of_measure = "%"
experimental_value = 22.1


Let us move to another entry and its viability, T/C.
Task: Give viability, T/C for NC1c2ccccc2OC12CCN(c1cnc3c(N4CCCc5ncccc54)n[nH]c3n1)CC2 (centres undefined) + C#Cc1c(F)ccc2cc(O)cc(-c3ncc4c(N5CC6CCC(C5)N6)nc(OCC56CCCN5CC(F)C6)nc4c3F)c12
Output: 53.3
